Target: UniProt:Q58F21
Assay: BROMOscan ligand-binding assay
Conditions: BROMOscan, BRDT(1)
test readout: Kd (µM)
I only need the number, in µM, no unit after it.

q: Fill in the blank: the reported Kd of O=C(C=CN1[C@H]2CC[C@@H]1c1ncnc(NC3CC3)c1C2)c1ccccc1O [PFI-3 D1] is ____.
a: 24

* * *

Target: UniProtKB Q86U86
Sequence (Q86U86 177-287 limits assumed): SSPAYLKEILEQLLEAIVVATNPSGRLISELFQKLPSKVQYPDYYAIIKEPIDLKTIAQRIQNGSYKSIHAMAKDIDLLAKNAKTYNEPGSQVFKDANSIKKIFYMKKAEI
Assay: BROMOscan ligand-binding assay
pKd: −log10 of the molar value.
test readout: pKd

q: Given the entry CCCS(=O)(=O)c1nc(NC2CC2)cc(-c2ccc3c(ccn3C3CC(C)(C)NC(C)(C)C3)c2)n1 [NVS-CECR2-1] , report its measured pKd.
a: < 4.52

* * *

Target: UniProtKB Q9H8M2
Assay: BROMOscan ligand-binding assay
Conditions: KD, BROMOscan Gene Symbol BRD9
pKd: recorded values
Value format note: pKd is -log10 of concentration (mol/L); just state the number.

[[record]]
compound = "CCCOc1ccn2c(C(C)=O)cc(-c3ccccc3S(C)(=O)=O)c2c1"
tested_on = "UniProtKB Q9H8M2"
measured_number = 6.92


Continue with the compound presented below.
q: Would you mind telling me what pKd value was observed for CCC(=O)N1CCOc2c(cc(-c3ccc(OC)c(OC)c3)cc2OCC2CCCN(C)C2)C1 (centres unmarked) ?
a: 4.60

* * *

Molecular target: BRD9 (Homo sapiens)
Sequence (Q9H8M2 136-240 limits assumed): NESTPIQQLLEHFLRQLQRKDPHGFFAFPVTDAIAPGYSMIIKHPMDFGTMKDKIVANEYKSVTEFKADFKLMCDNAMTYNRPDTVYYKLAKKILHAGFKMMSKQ
Assay: BROMOscan ligand-binding assay
Details: BROMOscan, BRD9
test readout: Kd

q: Provide value of Kd for this record tested with BRD9 (Homo sapiens): O=C(C=CN1[C@H]2CC[C@@H]1c1ncnc(NC3CC3)c1C2)c1ccccc1O [PFI-3 D1]
a: > 30 µM

* * *

Molecular target: BRD2(1) (Homo sapiens)
Test: BROMOscan ligand-binding assay
Conditions: BROMOscan Gene Symbol BRD2(1)
test readout: pKd
In textbook form, pKd equals minus log to base ten of the concentration in mol/L.

[[record]]
smiles_data = "COc1ccc(CCc2nc3cc(-c4c(C)noc4C)ccc3n2CCN2CCOCC2)cc1"
test_readout = "pKd"
measured_number = 5.82


q: Give the reported pKd for `Cc1noc(C)c1-c1ccc2c(c1)nc(CCc1ccccc1)n2CCN1CCOCC1` (system: BRD2(1) (Homo sapiens)).
a: 6.11

* * *

Biological target: BAZ2B (Homo sapiens, UniProt Q9UIF8)
Sequence (Q9UIF8 2060-2164 limits assumed): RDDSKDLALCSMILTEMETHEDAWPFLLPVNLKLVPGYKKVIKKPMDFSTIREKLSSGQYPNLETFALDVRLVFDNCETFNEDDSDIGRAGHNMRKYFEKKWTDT
Assay: BROMOscan ligand-binding assay
Conditions: KD, BROMOscan, BAZ2B
pKd: −log10 of the molar value.
test readout: pKd

q: Fill in the blank: the reported pKd of `COc1ccc(CCc2nc3cc(-c4c(C)noc4C)ccc3n2C[C@H](C)N2CCOCC2)cc1Cl` is ____.
a: < 4.00

* * *

Molecular target: DNMT3A/3L (Homo sapiens, UniProt Q9Y6K1)
Construct: purchased DiscoverX BROMOscan (bromodomains); SGC in-house methyltransferase panel
Sequence (Q9Y6K1 whole entry, looked up): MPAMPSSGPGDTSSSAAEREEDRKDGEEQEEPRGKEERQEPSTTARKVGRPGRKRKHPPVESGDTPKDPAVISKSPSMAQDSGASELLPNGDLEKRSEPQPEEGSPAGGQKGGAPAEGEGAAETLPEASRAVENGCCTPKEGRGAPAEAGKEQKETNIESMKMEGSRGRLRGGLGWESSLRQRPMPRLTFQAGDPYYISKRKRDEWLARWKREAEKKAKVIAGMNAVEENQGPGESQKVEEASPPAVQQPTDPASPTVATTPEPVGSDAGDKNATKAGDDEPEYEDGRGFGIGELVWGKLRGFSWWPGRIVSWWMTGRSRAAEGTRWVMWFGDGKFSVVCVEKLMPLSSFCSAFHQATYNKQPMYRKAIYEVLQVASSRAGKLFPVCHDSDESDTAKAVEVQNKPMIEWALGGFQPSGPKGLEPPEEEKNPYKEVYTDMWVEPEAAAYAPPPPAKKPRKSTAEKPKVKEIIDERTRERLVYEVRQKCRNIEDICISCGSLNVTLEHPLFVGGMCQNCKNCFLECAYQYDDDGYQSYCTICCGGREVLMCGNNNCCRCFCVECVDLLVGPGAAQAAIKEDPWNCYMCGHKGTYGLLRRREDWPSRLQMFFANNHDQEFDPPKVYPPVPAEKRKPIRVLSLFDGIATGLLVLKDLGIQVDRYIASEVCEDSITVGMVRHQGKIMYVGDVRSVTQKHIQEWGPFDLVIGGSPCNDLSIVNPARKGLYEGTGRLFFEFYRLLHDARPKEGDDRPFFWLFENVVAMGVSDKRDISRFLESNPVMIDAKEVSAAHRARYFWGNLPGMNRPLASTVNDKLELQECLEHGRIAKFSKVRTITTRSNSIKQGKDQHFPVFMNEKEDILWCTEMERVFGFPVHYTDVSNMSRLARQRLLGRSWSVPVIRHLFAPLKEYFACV
Sequence (Q9UJW3 whole entry partner): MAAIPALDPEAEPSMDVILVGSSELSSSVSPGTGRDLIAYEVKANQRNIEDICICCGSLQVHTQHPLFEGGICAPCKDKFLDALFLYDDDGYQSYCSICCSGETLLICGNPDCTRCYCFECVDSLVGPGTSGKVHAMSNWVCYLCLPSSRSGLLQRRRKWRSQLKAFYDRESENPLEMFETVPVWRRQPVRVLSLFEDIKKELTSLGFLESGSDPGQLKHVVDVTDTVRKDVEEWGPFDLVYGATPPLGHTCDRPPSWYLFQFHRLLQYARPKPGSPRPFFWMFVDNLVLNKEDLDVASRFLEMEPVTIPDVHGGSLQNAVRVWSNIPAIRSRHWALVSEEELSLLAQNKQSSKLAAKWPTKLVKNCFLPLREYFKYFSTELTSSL
Test: Methyl transferase scintillation proximity assay
Format: biochemical
Details: average of two measurements, read-out: MTases Inhibition (%)
test readout: inhibition at 10 µM
Report field: quantity (unit follows the number).

Example compounds with recorded inhibition at 10 µM:
[[record]]
smiles_data = "CN1C[C@H](Nc2cnn(C)c(=O)c2Br)C[C@H](c2ccccc2)C1"
tested_on = "DNMT3A/3L (Homo sapiens, UniProt Q9Y6K1)"
test_readout = "inhibition at 10 µM"
result = "3%"

[[record]]
smiles_data = "Cc1c(NC(=O)c2cc(C(N)=O)nc3cc(F)ccc23)c(C(F)(F)F)nn1Cc1ccc(C#N)cc1"
tested_on = "DNMT3A/3L (Homo sapiens, UniProt Q9Y6K1)"
test_readout = "inhibition at 10 µM"
result = "6%"

[[record]]
smiles_data = "Cc1nnc2c3ccccc3c(N[C@@H](C)[C@H](c3ccccc3)N(C)C)nn12"
tested_on = "DNMT3A/3L (Homo sapiens, UniProt Q9Y6K1)"
test_readout = "inhibition at 10 µM"
result = "2%"


Proceeding to the next compound to report its inhibition at 10 µM.
q: Lookup: inhibition at 10 µM / DNMT3A/3L (Homo sapiens, UniProt Q9Y6K1) / `CN(C)CCCOc1ccc(-c2cc(NCCCn3cccn3)nc(S(C)(=O)=O)n2)cc1`
a: 8%

* * *

Target: UniProt:O60885
Assay: BROMOscan ligand-binding assay
Details: read-out: KD (BROMOscan); sheet prints no unit (nM)
test readout: Kd
Give the value; after it, write the unit.

q: Give its Kd value. Item: `COc1cc(C#N)ccc1S(=O)(=O)Nc1ccc2c(c1)cc(C)c(=O)n2C`
a: 3300 nM

* * *

Attribute: inhibition at 10 µM
Target: DNMT3A/3L (Homo sapiens)
Construct: purchased DiscoverX BROMOscan (bromodomains); SGC in-house methyltransferase panel
Assay: Methyl transferase scintillation proximity assay
Type: biochemical
Settings: average of two measurements, read-out: MTases Inhibition (%)
Form entry: value (%) — number only.

[[record]]
molecule = "Cc1c(NC(=O)c2cc(C(N)=O)nc3cc(F)ccc23)c(C(F)(F)F)nn1Cc1ccc(C(C)(C)C)cc1 [BAY-588]"
measured_number = -1

[[record]]
molecule = "CO[C@H]1CNC[C@@H](OCC2CCC(F)(F)CC2)[C@@H]1Nc1ncc(-c2cncc(C)c2)c2cc(C)c(=O)[nH]c12 [GSK8814]"
measured_number = 8


Now for a further molecule.
q: // query inhibition at 10 µM value for entry COc1cc(Cl)c(C(=O)N[C@@H](CN[C@H]2CC[C@@H](N)CC2)Cc2ccc(C#N)cc2)cc1-c1ccc(CN[C@H](C)c2ccc(C)cc2)o1 [BAY-850]
a: 21

* * *

Target: BAZ2A (Homo sapiens)
Sequence (Q9UIF9 1793-1897 limits assumed): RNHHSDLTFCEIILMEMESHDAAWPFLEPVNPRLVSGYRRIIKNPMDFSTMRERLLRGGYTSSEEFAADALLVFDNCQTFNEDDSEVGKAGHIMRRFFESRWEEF
Assay: BROMOscan ligand-binding assay
Conditions: BAZ2A
Attribute: Kd

Worked cases, answers included:
[[record]]
smiles_data = "Cc1cc(=O)n(C)c2cc(N3C(=O)CC[C@H](NS(=O)(=O)CC(C)C)[C@H]3c3ccc(Cl)cc3)ccc12"
tested_on = "BAZ2A (Homo sapiens)"
result = "> 50 µM"

[[record]]
smiles_data = "COc1cc(C#N)ccc1S(=O)(=O)Nc1ccc2c(c1)cc(C)c(=O)n2C"
tested_on = "BAZ2A (Homo sapiens)"
result = "> 50 µM"


Now look at this entry.
q: API: value(readout= Kd, system= BAZ2A (Homo sapiens), query= `COc1cc2c(cc1NS(=O)(=O)c1ccc(Br)cc1C)n(C)c(=O)n2C` )
a: 13 µM

* * *

Target: UniProtKB Q9BXF3
Sequence (Q9BXF3 434-538 limits assumed): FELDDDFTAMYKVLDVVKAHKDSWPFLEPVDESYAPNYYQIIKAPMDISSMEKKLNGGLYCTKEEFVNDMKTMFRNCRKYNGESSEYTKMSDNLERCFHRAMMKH
Test: BROMOscan ligand-binding assay
Conditions: read-out: KD (BROMOscan); sheet prints no unit (nM)
test readout: Kd

q: Quick check: Kd of `COc1cc2c(cc1NS(=O)(=O)c1ccc(Br)cc1C)n(C)c(=O)n2C` ?
a: > 30000 nM

* * *

Target: BRD2(1) (Homo sapiens, UniProt P25440)
Sequence (P25440 74-180 limits assumed): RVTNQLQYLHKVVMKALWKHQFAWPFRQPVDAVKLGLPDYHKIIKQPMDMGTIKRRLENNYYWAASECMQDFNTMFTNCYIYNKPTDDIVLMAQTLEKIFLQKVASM
Test: BROMOscan ligand-binding assay
Below, each entry is listed alongside its reported Kd.
Expressed in µM, but write only the number.

// known answers, use as guide
[[record]]
molecule = "CCC(=O)N1CCOc2c(cc(-c3ccc(OC)c(OC)c3)cc2OCC2CCCN(C)C2)C1 (centres unmarked)"
measured_number = 5.7

[[record]]
molecule = "COc1ccc(CCc2nc3cc(-c4c(C)noc4C)ccc3n2C[C@H](C)N2CCOCC2)cc1Cl"
measured_number = 0.62


Consider the additional molecule presented here.
q: Tell me the measured Kd of `CCCOc1ccn2c(C(C)=O)cc(-c3ccccc3S(C)(=O)=O)c2c1` , please.
a: 41

* * *

Biological target: NSD1 (Homo sapiens)
Construct: purchased DiscoverX BROMOscan (bromodomains); SGC in-house methyltransferase panel
Sequence (Q96L73 whole entry): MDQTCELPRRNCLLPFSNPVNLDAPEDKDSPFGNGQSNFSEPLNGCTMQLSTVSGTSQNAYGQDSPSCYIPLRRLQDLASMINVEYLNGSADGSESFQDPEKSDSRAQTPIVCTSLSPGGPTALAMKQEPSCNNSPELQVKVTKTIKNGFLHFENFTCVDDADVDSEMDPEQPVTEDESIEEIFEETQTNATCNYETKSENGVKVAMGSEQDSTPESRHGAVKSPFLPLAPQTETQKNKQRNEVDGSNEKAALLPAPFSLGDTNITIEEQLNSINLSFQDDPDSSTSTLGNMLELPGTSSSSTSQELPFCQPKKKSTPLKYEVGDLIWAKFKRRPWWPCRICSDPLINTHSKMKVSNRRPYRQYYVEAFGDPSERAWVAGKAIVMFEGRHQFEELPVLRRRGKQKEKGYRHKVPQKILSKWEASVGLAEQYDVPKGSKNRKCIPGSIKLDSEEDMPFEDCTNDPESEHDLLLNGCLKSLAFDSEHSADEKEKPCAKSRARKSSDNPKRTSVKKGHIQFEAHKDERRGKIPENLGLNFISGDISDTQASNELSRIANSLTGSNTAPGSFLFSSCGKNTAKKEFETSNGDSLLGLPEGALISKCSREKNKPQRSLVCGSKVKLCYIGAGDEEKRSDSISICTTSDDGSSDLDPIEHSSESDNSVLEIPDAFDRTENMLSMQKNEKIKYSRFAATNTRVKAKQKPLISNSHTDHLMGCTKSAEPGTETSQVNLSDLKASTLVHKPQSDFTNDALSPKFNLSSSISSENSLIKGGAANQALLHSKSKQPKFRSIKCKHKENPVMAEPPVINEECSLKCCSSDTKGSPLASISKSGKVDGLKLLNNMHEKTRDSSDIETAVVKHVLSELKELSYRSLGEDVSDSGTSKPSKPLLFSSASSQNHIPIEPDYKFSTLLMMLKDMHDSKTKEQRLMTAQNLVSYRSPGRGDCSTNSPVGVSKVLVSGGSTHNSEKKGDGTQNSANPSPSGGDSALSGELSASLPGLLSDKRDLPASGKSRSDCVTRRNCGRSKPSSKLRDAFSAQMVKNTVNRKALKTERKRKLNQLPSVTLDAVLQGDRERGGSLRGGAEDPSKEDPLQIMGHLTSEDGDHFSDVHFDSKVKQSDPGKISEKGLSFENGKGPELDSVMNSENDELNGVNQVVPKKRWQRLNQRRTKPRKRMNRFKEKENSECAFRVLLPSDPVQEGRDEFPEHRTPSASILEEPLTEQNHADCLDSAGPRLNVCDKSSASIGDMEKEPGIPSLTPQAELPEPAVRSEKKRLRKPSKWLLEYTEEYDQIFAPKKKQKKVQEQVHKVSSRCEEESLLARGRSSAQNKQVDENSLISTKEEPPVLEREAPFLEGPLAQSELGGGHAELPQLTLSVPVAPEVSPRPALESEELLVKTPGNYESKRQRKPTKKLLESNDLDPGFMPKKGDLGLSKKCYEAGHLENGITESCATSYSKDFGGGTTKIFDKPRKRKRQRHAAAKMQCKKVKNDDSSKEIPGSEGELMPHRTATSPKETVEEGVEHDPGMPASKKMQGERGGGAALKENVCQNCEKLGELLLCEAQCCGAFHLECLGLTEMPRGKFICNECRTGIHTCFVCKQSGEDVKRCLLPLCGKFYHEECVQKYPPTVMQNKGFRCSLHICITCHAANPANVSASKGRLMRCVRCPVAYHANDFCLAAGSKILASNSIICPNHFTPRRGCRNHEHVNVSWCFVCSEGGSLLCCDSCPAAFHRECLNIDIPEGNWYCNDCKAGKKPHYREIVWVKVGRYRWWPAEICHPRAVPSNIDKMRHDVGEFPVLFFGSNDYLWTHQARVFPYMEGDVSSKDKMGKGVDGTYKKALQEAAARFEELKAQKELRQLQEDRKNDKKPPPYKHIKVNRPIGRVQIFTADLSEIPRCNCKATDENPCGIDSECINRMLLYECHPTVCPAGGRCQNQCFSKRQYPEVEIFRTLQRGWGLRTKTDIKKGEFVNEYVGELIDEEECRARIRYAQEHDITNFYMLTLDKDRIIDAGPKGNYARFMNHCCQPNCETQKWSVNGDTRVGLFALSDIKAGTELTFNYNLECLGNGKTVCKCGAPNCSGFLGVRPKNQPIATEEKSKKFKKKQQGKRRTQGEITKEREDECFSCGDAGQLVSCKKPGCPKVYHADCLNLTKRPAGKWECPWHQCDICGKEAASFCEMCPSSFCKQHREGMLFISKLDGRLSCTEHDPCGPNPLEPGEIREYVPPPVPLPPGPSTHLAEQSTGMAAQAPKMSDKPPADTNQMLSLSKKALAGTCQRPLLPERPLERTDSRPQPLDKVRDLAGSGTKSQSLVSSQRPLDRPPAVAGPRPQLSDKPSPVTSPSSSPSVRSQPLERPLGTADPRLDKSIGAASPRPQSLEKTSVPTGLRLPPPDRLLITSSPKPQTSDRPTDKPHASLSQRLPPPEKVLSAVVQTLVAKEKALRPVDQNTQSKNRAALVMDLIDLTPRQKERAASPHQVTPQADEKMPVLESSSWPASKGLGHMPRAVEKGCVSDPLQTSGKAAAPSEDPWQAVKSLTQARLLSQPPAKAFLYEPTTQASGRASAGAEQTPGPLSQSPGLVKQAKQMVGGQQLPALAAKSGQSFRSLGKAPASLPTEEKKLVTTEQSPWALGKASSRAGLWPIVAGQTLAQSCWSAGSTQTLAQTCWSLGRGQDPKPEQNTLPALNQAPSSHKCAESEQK
Test: Methyl transferase scintillation proximity assay
Format: biochemical
Conditions: average of two measurements, read-out: MTases Inhibition (%)
Description: Assays measuring lysine and arginine methyl transferase activity have been described in Scheer et al.. A radioactivity-based scintillation proximity assay was used to monitor incorporation of a tritium-labeled methyl group into the biotinylated substrate of the methyl transferase. A 10-μl reaction containing ^3H-SAM and substrate at concentrations close to the apparent Km values for each enzyme was prepared. […] The counts per minute (CPM) was measured on a TopCount plate reader. […]
Each item that follows carries a reported inhibition at 10 µM.

Below, each entry is followed by its recorded inhibition at 10 µM result.
[[record]]
compound = "CN(C)CCCOc1ccc(-c2cc(NCCCn3cccn3)nc(S(C)(=O)=O)n2)cc1 [TP-238]"
tested_on = "NSD1 (Homo sapiens)"
test_readout = "inhibition at 10 µM"
result = "1%"

[[record]]
compound = "COc1cc(Cl)c(C(=O)N[C@@H](CN[C@H]2CC[C@@H](N)CC2)Cc2ccc(C#N)cc2)cc1-c1ccc(CN[C@H](C)c2ccc(C)cc2)o1 [BAY-850]"
tested_on = "NSD1 (Homo sapiens)"
test_readout = "inhibition at 10 µM"
result = "2%"


Pending compound:
q: I'd like to know its inhibition at 10 µM. The compound in question is Cc1c(NC(=O)c2cc(C(N)=O)nc3cc(F)ccc23)c(C(F)(F)F)nn1Cc1ccc(C#N)cc1 [BAY-876]
a: 2%
